MEASURED_ON: sodium-proton exchanger of subtype 3 (NHE3) (Homo sapiens)
Construct: expressed in transfected cells
ASSAY: Recovery of intracellular pH (pHi) after acidification in LAP1 cells stably expressing NHE3 (BCECF fluorescence, FLIPR)
Type: cell-based
TEST_SETTINGS: LAP1 cells stably expressing NHE3; pH recovery after acidification; range 1 is % inhibition at 10 μM; read-out: Activity range (inhibitory effect on NHE3)
pIC50: −log10 of the molar value.
PARAMETER: pIC50

Field: example entries. Status: answers known.
{"columns": ["COMPOUND", "pIC50"],
 "data": [
  ["N[C@@H]1CCCN([C@@H]2Cc3ccccc3[C@H]2Oc2ccc3c(c2)OCO3)C1 (racemic)", "5.00 to 6.00"],
  ["Cc1nnc(C)n1-c1ccc(O[C@H]2c3cc(Cl)cc(Cl)c3C[C@@H]2N2CCCNCC2)cc1", "> 6.00"],
  ["CS(=O)(=O)c1ccc(O[C@@H]2c3ccccc3C[C@H]2NCC2CC2)cc1 (racemic)", "5.00 to 6.00"],
  ["O=C1CNC(=O)N1c1ccc(O[C@H]2c3cc(Cl)cc(Cl)c3C[C@@H]2N2CC[C@@H](O)C2)cc1", "> 6.00"],
  ["NC(=O)c1cc(Cl)ccc1O[C@H]1c2ccccc2CC[C@@H]1N1CCC[C@@H](N)C1 (racemic)", "5.00 to 6.00"]
]}

Enquiry: Looking for the measured pIC50 of CC(=O)Nc1cccc(O[C@H]2c3cccc(F)c3C[C@@H]2N2CCCC2)c1 (racemic) , can you help?
Return: 5.00 to 6.00

Enquiry: Moving on to `Cc1cc(=O)cc(C)n1-c1ccc(O[C@H]2c3cc(Cl)cc(Cl)c3C[C@@H]2N2CC[C@@H](O)C2)c(F)c1`
Return: > 6.00

###

MEASURED_ON: sodium-proton exchanger of subtype 3 (NHE3) (Homo sapiens, UniProt P48764)
Construct: expressed in transfected cells
Sequence (P48764 26-834): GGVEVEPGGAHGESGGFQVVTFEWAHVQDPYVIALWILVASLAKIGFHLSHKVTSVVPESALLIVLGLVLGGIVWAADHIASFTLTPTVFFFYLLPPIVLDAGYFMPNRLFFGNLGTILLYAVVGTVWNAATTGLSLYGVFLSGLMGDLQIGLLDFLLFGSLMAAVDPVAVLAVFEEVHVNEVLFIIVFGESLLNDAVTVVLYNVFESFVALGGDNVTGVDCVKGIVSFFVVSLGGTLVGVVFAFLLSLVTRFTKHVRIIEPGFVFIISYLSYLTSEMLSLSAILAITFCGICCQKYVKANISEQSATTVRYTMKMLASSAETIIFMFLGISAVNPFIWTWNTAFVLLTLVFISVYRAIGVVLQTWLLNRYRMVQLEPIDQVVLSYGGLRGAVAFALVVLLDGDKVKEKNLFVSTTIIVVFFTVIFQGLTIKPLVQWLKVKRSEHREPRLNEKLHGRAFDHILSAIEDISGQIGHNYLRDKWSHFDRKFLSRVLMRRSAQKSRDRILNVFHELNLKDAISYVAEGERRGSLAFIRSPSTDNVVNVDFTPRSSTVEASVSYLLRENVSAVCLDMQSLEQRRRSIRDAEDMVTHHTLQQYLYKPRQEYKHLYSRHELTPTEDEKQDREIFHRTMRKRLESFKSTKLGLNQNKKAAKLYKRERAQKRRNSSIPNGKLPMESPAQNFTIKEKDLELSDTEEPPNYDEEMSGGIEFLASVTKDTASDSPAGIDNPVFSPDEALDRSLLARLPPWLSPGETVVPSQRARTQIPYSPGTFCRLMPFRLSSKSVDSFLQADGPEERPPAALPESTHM
ASSAY: Recovery of intracellular pH (pHi) after acidification in LAP1 cells stably expressing NHE3 (BCECF fluorescence, FLIPR)
Format: cell-based
TEST_SETTINGS: LAP1 cells stably expressing NHE3; pH recovery after acidification; range 1 is % inhibition at 10 μM; read-out: Activity range (inhibitory effect on NHE3)
PARAMETER: IC50

{"columns": ["COMPOUND", "MEASURED_ON", "IC50"],
 "data": [
  ["NCC1CCN([C@@H]2Cc3ccccc3[C@H]2Oc2cccc(NC(N)=O)c2)CC1 (racemic)", "sodium-proton exchanger of subtype 3 (NHE3) (Homo sapiens, UniProt P48764)", "1 to 10 µM"]
]}

Enquiry: What does the record list as IC50 for CS(=O)(=O)c1ccc(OC2c3ccccc3CC2N2CCC[C@@H](N)C2)c(Cl)c1 (mixture of isomers) ?
Return: < 1 µM

Enquiry: Do the same for N[C@@H]1CCCN([C@@H]2Cc3ccccc3[C@H]2Oc2ccc(N3CCNCC3)cc2)C1 (racemic) please
Return: 1 to 10 µM

Enquiry: What would you report for N#Cc1ccc(O[C@@H]2c3ccccc3C[C@H]2N2CCC(CN)CC2)c(Cl)c1 (racemic) ?
Return: 1 to 10 µM

Enquiry: Follow-up entry: `Cc1nnc(C)n1-c1ccc(O[C@H]2c3cc(Cl)ccc3C[C@@H]2N2CC[C@@H](O)C2)cc1`
Return: < 1 µM

Enquiry: Record: N[C@H]1CCCN([C@H]2CCc3ccccc3[C@@H]2Oc2cccc3ccc(Cl)nc23)C1 (racemic)
Return: 1 to 10 µM

Enquiry: // query: `N[C@@H]1CCCN([C@H]2Cc3c(Cl)cc(Cl)cc3[C@@H]2Oc2ccc(-n3cncn3)cc2)C1`
Return: < 1 µM

Enquiry: And the next one, CCCc1ccc(NC(C)=O)cc1O[C@H]1c2ccccc2CC[C@@H]1N1CCC[C@H](N)C1 (racemic) ?
Return: 1 to 10 µM
